# Tested on: A549/ATCC NSCLC
# assay_procedure: NCI-60 one-dose screen, 48 h
# measurement_context: 10 µM unless noted
The panel holds about 83,000 compounds, 20% with a hit somewhere; the sample as a whole holds those more often. The source made the active and inactive calls. The calls were made as follows: active = growth percent below 10; inactive = the rest.
Outcome codes: active, inactive

[[record]]
molecule = "Cc1ccc(-c2nnc3ccc(N/N=C/c4ccccc4)nn23)cc1"
category = "inactive"

[[record]]
molecule = "C=C1CCC2C3(C)COC(c4ccccc4)OC3CCC2(C)C1CC(Sc1ccccc1)C1=CCOC1=O (configuration not stated)"
category = "inactive"

[[record]]
molecule = "COc1ccc2cc([C@H](C)C(=O)N/N=C/c3ccc(Br)cc3)ccc2c1"
category = "inactive"

[[record]]
molecule = "CC(=O)Oc1ccccc1C(=O)[Se]CC(=O)Nc1cccc(C(F)(F)F)c1"
category = "active"

[[record]]
molecule = "C=C1CC[C@@H]2[C@]3(C)COC(c4cn[nH]c4-c4ccc(F)cc4)O[C@@H]3CC[C@@]2(C)[C@@H]1C/C=C1/C(=O)OCC1O (some centres not stated)"
category = "active"

[[record]]
molecule = "COc1cc(-c2nc3cc(Cl)c(Cl)cc3[nH]2)ccc1OCc1nnc(-c2cccs2)o1"
category = "inactive"

[[record]]
molecule = "COc1ccc2[nH]c(O)c(N=NC(=O)COc3ccc(NC(=O)Nc4ccccc4)cc3)c2c1"
category = "inactive"

[[record]]
molecule = "C/C(=N\\N=C\\c1cc([N+](=O)[O-])ccc1Cl)c1ccc2c(c1)Nc1ccccc1S2"
category = "inactive"

[[record]]
molecule = "CC(=O)c1cc(C(=O)c2ccccc2)n2c1ccc1ccccc12"
category = "inactive"

[[record]]
molecule = "COc1ccc([C@H](C)Nc2nc(Cl)nc3ccccc23)cc1"
category = "inactive"

[[record]]
molecule = "CC(=O)Nc1cccc(-c2nc3cc(-c4ccc(O)cc4)ccc3n2C)c1"
category = "inactive"

[[record]]
molecule = "O=C(c1ccccc1)C(c1c[nH]c2ccccc12)c1c[nH]c2ccccc12"
category = "inactive"

[[record]]
molecule = "CNC(=O)c1cc(Oc2ccc3nc(NC(=O)Nc4cccc(OC(F)(F)F)c4)sc3c2)ccn1"
category = "inactive"

[[record]]
molecule = "Cc1ccc(C(SCCNCc2cc(N(C)C)ccn2)(c2ccccc2)c2ccccc2)cc1"
category = "active"

[[record]]
molecule = "CCOC(=O)C1=C(N)N(c2ccccc2)C2=C(C(=O)CC(C)(C)C2)C1c1ccc(N2CCOCC2)cc1 (configuration not stated)"
category = "inactive"

[[record]]
molecule = "Brc1ccc(-c2n(Cc3ccc4ccccc4c3)c(-c3ccccc3)c(-c3ccccc3)[n+]2Cc2ccc3ccccc3c2)cc1"
category = "active"

[[record]]
molecule = "N#Cc1c(-c2cccc(Cl)c2Cl)cc(-c2c[nH]c3ccccc23)[nH]c1=O"
category = "inactive"

[[record]]
molecule = "O=C(/C=C/c1ccc(-c2ccccc2)cc1)c1nc2ccccc2n1Cc1ccc(F)cc1"
category = "inactive"

[[record]]
molecule = "COC1=C[C@]23CCC(=O)N2CCc2cc4c(cc2[C@@H]3[C@@H]1OC(=O)[C@H](C)O)OCO4"
category = "active"

[[record]]
molecule = "CN1CCN(c2ccc3c(c2)nc(NNC(=O)c2cnccn2)c2cccn23)CC1"
category = "active"

[[record]]
molecule = "CC(C)c1sc(NC(=O)c2cc(NC(=O)c3cc(NC(=O)c4nccn4C)cn3C)cn2C)nc1C(=O)NCCCN(C)C"
category = "inactive"

[[record]]
molecule = "CCN1C(=O)/C(=N\\N=C(/C)c2ccc3c(c2)Nc2ccccc2S3)c2cc(Cl)ccc21"
category = "inactive"


FYI, the data here is from PubChem BioAssay (NCI).
